Recorded Fold increase in potency compared to AB-H8 for the following binders
Molecular target: human Siglec-7 on primary human monocyte-derived dendritic cells (human, UniProt Q9Y286 19-467)
Sequence (Q9Y286 19-467): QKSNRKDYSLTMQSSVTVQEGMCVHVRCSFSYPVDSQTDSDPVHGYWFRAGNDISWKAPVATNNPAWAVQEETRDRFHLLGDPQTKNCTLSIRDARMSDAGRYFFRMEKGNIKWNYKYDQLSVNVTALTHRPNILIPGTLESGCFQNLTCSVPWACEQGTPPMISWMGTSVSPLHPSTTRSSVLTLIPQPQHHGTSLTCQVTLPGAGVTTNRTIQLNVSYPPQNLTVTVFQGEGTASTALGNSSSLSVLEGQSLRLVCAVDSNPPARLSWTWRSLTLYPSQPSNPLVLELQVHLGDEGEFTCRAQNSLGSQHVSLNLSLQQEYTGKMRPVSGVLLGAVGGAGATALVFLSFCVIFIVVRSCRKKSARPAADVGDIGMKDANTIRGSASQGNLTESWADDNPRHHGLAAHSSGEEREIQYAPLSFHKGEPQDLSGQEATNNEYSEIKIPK
Experiment: cell-based or functional assay
Give just the numeric value; fold need not be written.

Here is how some binders turned out for Fold increase in potency compared to AB-H8.
S7AB-H8.44.2 (antibody, V domains shown) VH: QVQLVQSGAEVKKPGASVKVSCKASGYAFTAAWMNWVRQARGQRLEWIGRIFPGLGHTNYAQKFQGRATLTEDTSTSTAYMELSSLRSEDTAVYYCARDYSDYYFDYWGQGTLVTVSS VL: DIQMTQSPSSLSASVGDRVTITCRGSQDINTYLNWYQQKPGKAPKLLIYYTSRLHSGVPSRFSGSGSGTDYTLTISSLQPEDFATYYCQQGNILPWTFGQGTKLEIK
4.7
S7AB-H8.37 (antibody, V domains shown) VH: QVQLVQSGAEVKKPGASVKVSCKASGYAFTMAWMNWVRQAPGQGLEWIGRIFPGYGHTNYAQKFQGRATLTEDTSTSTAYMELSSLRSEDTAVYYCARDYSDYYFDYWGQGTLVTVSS VL: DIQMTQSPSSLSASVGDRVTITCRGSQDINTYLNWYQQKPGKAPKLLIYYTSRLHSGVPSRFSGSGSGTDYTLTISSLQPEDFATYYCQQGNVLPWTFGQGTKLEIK
4.8
S7AB-H8.34 (antibody, V domains shown) VH: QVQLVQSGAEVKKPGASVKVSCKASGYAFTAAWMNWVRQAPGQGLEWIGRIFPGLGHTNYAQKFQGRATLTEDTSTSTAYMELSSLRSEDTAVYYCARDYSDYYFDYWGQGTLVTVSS VL: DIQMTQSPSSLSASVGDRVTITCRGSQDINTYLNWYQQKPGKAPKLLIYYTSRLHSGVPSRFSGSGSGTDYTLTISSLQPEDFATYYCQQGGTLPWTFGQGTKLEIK
2.9
S7AB-H8.29.2 (antibody, V domains shown) VH: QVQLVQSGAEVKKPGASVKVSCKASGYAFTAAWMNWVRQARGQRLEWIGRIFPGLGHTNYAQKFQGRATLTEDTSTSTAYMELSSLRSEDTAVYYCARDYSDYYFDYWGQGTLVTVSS VL: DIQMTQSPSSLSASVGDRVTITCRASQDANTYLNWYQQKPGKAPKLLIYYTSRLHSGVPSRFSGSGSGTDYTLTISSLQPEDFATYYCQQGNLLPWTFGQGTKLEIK
4.1

Please examine the following record next.
// lookup Fold increase in potency compared to AB-H8 for S7AB-H8.7 (antibody, V domains shown) VH: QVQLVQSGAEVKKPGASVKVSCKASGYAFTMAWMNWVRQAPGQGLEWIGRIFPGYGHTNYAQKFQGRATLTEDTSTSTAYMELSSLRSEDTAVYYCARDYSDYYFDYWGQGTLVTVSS VL: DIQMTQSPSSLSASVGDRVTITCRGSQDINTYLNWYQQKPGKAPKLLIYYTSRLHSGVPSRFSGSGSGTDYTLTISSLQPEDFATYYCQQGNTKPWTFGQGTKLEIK 4

The origin of these recorded values is patent US20210246204A1.
